Data provenance: ChEMBL document CHEMBL4373715

# Tested target: DNA topoisomerase 2-alpha (Homo sapiens) (UniProt P11388)
# Sequence (P11388 whole entry): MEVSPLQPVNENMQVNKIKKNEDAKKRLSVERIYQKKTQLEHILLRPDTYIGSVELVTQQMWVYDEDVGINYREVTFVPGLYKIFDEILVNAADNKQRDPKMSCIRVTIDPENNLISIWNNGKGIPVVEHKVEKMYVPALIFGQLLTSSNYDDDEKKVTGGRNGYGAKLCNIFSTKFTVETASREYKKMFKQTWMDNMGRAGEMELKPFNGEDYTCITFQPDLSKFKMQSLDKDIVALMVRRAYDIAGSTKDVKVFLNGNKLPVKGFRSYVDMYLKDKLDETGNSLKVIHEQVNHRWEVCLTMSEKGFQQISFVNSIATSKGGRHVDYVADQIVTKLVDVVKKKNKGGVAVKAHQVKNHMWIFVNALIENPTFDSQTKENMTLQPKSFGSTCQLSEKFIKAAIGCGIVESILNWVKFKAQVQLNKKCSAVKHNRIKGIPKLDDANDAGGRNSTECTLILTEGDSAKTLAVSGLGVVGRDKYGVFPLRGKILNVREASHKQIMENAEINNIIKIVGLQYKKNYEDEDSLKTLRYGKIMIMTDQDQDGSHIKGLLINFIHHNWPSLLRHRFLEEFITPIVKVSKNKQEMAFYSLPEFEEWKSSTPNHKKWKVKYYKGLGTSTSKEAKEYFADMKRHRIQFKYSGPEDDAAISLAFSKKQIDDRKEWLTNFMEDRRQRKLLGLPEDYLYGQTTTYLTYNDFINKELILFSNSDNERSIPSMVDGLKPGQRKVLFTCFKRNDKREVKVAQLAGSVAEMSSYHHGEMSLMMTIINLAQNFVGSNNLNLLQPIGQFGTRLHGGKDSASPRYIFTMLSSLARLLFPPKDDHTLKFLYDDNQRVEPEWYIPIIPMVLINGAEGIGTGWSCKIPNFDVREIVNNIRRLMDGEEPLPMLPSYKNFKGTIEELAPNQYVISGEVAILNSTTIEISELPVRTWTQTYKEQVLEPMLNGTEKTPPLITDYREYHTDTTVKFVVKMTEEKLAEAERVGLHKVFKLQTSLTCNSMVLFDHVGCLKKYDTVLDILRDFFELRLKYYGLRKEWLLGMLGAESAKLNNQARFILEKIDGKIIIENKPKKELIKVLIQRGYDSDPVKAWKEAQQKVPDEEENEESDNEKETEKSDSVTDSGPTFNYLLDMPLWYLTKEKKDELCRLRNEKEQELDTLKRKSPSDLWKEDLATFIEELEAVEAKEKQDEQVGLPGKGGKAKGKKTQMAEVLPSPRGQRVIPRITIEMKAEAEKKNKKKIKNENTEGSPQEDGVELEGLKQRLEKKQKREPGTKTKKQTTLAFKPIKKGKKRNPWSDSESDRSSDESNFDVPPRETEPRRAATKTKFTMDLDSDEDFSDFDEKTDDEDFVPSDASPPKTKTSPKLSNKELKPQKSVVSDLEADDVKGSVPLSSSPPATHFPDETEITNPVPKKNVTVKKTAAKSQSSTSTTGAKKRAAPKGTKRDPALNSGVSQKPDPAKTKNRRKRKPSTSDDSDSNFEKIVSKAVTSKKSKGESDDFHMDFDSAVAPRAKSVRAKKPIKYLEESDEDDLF
# Experiment notes: Inhibition of recombinant human topoisomerase 2alpha-mediated relaxation of supercoiled pBR322 DNA at 100 uM measured after 30 mins by ethidium bromide staining based agarose gel electrophoresis relative to control
Record Met whenever inhibition is at 70% or higher; record Not met when lower.

Compound: Oc1cccc(-c2cc(-c3cccc(Cl)c3)c3c(n2)-c2cccc(O)c2C3)c1
Label class: Not met

QUERY: Check this molecule for inhibition at or above 70%: Oc1cccc(-c2cc(-c3cccc(Cl)c3)nc3c2Cc2cc(O)ccc2-3)c1
RESULT: Met

QUERY: Please indicate if the recorded inhibition for Oc1ccc2c(c1)-c1nc(-c3ccc(C(F)(F)F)cc3)cc(-c3ccccc3O)c1C2 meets or exceeds 70%.
RESULT: Met

QUERY: Is reported inhibition greater than or equal to 70% here: Oc1ccc2c(c1)-c1nc(-c3ccccc3O)cc(-c3ccc(Cl)cc3)c1C2
RESULT: Not met

QUERY: For this molecule, is measured inhibition 70% or higher? Oc1cccc(-c2cc(-c3ccccc3C(F)(F)F)nc3c2Cc2c(O)cccc2-3)c1
RESULT: Met

QUERY: Is reported inhibition greater than or equal to 70% here: Oc1cccc(-c2cc(-c3cccc(F)c3)nc3c2Cc2c(O)cccc2-3)c1
RESULT: Not met

QUERY: Is inhibition at least 70%? Consider Oc1ccc2c(c1)Cc1c(-c3ccccc3O)cc(-c3ccc(F)cc3)nc1-2
RESULT: Not met
